# % Relative activity (WT antibody/test antibody) per record follows
Molecular target: T1, human TNFR2 (Novoprotein, Cat #C830) (human, UniProt P20333 23-257, limits assumed)
T1 construct: construct not described; also called human TNFR2 protein
T1 sequence (looked up): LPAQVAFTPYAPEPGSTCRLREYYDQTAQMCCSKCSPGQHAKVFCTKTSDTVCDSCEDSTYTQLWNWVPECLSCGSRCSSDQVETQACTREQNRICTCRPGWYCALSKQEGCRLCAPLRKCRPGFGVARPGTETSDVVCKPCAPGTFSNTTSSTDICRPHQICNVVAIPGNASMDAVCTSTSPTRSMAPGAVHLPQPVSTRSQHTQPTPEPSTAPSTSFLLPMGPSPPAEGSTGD
Assay: competition ELISA, competitor human TNFα-Biotin; IC50 against 219-WT
metric_name: % Relative activity (WT antibody/test antibody) (%)

binder | observed
219-Hu3 (antibody, V domains shown, also called VH5 + VL5) VH: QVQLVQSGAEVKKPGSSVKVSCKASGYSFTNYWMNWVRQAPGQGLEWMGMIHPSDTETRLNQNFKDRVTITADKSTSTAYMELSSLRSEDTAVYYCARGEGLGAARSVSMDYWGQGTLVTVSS VL: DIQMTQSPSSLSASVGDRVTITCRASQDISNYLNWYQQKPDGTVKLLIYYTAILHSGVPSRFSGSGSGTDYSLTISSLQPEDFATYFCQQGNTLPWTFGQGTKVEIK | 111
219-Hu5 (antibody, V domains shown, also called VH7 + VL5) VH: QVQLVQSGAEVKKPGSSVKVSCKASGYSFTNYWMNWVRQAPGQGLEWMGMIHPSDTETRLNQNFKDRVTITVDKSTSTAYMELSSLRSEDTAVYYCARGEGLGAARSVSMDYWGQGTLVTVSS VL: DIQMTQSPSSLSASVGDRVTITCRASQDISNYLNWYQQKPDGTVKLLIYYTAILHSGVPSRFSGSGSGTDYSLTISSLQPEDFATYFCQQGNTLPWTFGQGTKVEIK | 136
219-Hu1 (antibody, V domains shown, also called VH3 + VL5) VH: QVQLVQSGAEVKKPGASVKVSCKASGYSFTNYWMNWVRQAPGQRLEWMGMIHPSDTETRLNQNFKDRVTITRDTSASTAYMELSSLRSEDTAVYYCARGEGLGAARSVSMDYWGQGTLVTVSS VL: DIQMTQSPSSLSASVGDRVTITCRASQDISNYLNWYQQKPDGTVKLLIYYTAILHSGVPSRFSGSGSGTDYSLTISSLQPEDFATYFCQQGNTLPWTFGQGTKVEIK | 128
219-Hu4 (antibody, V domains shown, also called VH6 + VL5) VH: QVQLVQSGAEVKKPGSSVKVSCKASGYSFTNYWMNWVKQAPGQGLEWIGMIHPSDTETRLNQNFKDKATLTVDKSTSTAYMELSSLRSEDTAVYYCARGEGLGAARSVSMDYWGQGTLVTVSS VL: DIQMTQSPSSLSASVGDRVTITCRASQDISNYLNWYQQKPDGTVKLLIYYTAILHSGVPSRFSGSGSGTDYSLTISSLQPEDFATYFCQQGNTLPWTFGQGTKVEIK | 126
